Source of measurements: patent US7396844B1

Biological target: activated human blood coagulation factor X (Homo sapiens, UniProt P00742)
Construct: purchased Enzyme Research Co
Sequence (P00742 235-488 limits assumed): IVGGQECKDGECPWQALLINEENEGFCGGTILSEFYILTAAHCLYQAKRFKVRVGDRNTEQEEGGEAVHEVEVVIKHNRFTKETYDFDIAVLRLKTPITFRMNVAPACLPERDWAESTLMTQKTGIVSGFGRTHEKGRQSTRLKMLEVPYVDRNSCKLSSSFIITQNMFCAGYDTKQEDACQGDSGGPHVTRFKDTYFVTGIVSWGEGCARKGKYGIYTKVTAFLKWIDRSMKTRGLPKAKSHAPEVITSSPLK
Sequence (P00742 41-179 partner limits assumed): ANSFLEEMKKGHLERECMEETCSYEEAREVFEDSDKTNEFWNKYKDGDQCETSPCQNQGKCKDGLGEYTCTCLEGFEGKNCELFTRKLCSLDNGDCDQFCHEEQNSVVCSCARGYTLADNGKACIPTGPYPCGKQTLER
Experiment: Determination of activity of inhibiting the activated blood coagulation factor X
Assay type: biochemical
Conditions: Table 1; negative logarithm of concentration inhibiting 50% of initial rate; Tris-HCl pH 8.4, room temperature; read-out: Activity of inhibiting activated blood coagulation factor X (pIC50) (converted)
Where a name gives a salt, the structure may show the parent alone.
Outcome measure: IC50 (µM)

a. CN(C)C(=O)c1ccc(C(=O)NCCOc2cc(C(=N)N)ccc2CC(=O)C(=O)O)cc1 [Compound of Ex. 80, trifluoroacetate]
b. CN(C)C(=N)c1ccc(C(=O)NCCOc2cccc(C(=N)N)c2)cc1 [Compound of Ex. 7, bistrifluoroacetate]
c. N=C(N)c1cccc(OCCNC(=O)c2ccc(CCc3ccncc3)cc2)c1 [Compound of Ex. 14, bistrifluoroacetate]
d. N=C(N)c1cccc(OCCNC(=O)c2ccc(CC3CCNCC3)cc2)c1 [Compound of Ex. 43, bistrifluoroacetate]
Hello, I need these entries ordered by IC50, highest reading first. Thanks! Answer by writing out the labels in the requested order.
d, b, c, a
